Test system: ATP;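 note: ATP exposure 15 min at 22 °C before imaging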
assay.info: switch fluorescence ratio, 500 uM ATP over buffer (Cy3 cluster intensity, sum of 5 cycles each) (fold (ratio)); higher = stronger signal-on switching upon ATP binding; sequences stand for … in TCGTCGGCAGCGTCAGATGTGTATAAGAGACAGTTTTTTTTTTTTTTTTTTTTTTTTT…TC
study.conditions: aptamer strand: ATP DNA aptamer (quencher-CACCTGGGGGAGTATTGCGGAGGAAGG + anchor), 100 nM annealed; ATP concentration: 500 uM

{"sequence.string": "GGAGGGCGGT", "switch fluorescence ratio": 0.995}
{"sequence.string": "AGAGGGATCT", "switch fluorescence ratio": 1.02}
{"sequence.string": "CCGTTCAGGG", "switch fluorescence ratio": 1}
{"sequence.string": "TTTAATTGCA", "switch fluorescence ratio": 0.988}
{"sequence.string": "ATTTTCGGTT", "switch fluorescence ratio": 0.997}
{"sequence.string": "AGGGCATTCA", "switch fluorescence ratio": 1.02}
{"sequence.string": "GGTCTAAGGG", "switch fluorescence ratio": 0.976}
{"sequence.string": "AAAGTATTTC", "switch fluorescence ratio": 1.02}
{"sequence.string": "ATAAGGGGGC", "switch fluorescence ratio": 0.989}
{"sequence.string": "AACAGGGCAC", "switch fluorescence ratio": 1.02}
{"sequence.string": "ATTGCAGGGA", "switch fluorescence ratio": 0.993}
{"sequence.string": "GGGAGTGTGT", "switch fluorescence ratio": 0.986}
{"sequence.string": "CTAGGTGTG", "switch fluorescence ratio": 1.01}
{"sequence.string": "AAGATAGAAA", "switch fluorescence ratio": 1.01}
{"sequence.string": "GCAAGGGTTG", "switch fluorescence ratio": 1.01}
{"sequence.string": "TTCGAGAAGG", "switch fluorescence ratio": 0.972}

* * *

Tested on: ATP;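 note: ATP exposure 15 min at 22 °C before imaging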
assay.info: switch fluorescence ratio, 500 uM ATP over buffer (Cy3 cluster intensity, sum of 5 cycles each) (fold (ratio)); higher = stronger signal-on switching upon ATP binding; sequences stand for … in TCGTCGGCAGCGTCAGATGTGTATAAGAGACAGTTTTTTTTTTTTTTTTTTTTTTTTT…TC
study.conditions: aptamer strand: ATP DNA aptamer (quencher-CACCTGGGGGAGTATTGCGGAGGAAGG + anchor), 100 nM annealed; ATP concentration: 500 uM

{"sequence.string": "TTACGGTGGA", "system.under.test": "ATP", "switch fluorescence ratio": 0.996}
{"sequence.string": "GTTAATCTTA", "system.under.test": "ATP", "switch fluorescence ratio": 0.987}
{"sequence.string": "ATCGAGTGTG", "system.under.test": "ATP", "switch fluorescence ratio": 1.01}
{"sequence.string": "TCATTTCTGC", "system.under.test": "ATP", "switch fluorescence ratio": 1.01}
{"sequence.string": "ATATCGGCAT", "system.under.test": "ATP", "switch fluorescence ratio": 1.01}
{"sequence.string": "TACGAATAGG", "system.under.test": "ATP", "switch fluorescence ratio": 1.02}
{"sequence.string": "ATTTGGATGC", "system.under.test": "ATP", "switch fluorescence ratio": 1.01}
{"sequence.string": "GTGGGGTTTG", "system.under.test": "ATP", "switch fluorescence ratio": 1.01}
{"sequence.string": "GGTCTAATGG", "system.under.test": "ATP", "switch fluorescence ratio": 0.998}
{"sequence.string": "ATTCTCTTGT", "system.under.test": "ATP", "switch fluorescence ratio": 0.996}
{"sequence.string": "AATGGGTAGT", "system.under.test": "ATP", "switch fluorescence ratio": 0.991}
{"sequence.string": "GAATGGAGGT", "system.under.test": "ATP", "switch fluorescence ratio": 1.01}
{"sequence.string": "GGTAATTGCG", "system.under.test": "ATP", "switch fluorescence ratio": 0.99}
{"sequence.string": "AAGGGCCTGC", "system.under.test": "ATP", "switch fluorescence ratio": 0.972}
